# Test system: MDA-MB-468 breast
# Protocol Notes: NCI-60 one-dose screen, 48 h
# Measurement Parameters: 10 µM unless noted
About 83,000 compounds went through this panel and 20% of them were active in at least one assay; those are over-represented in the sample as a whole. Activity calls are given as the source filed them. How the source made its calls: active means growth percent below 10; inactive means the rest.
Classes used: Y = active, N = inactive

[
  {
    "Molecule": "CCN1CCN(Cc2ccc(C(=O)Nc3nc4ccc(Oc5ccnc(C(=O)NC)c5)cc4s3)cc2C(F)(F)F)CC1",
    "Group": "N"
  },
  {
    "Molecule": "CCN(CC)CC#CCOC(=O)[C@]1(C)CCC[C@]2(C)c3ccc(C(C)C)cc3CC[C@@H]12",
    "Group": "N"
  },
  {
    "Molecule": "Cc1cc(C2(c3cc(C)c(O)cc3C)OS(=O)(=O)c3ccccc32)c(C)cc1O",
    "Group": "N"
  },
  {
    "Molecule": "O=C(CSc1nc2sc3c(c2c(=O)n1-c1ccccc1)CCCCC3)N/N=C/c1ccc(F)cc1",
    "Group": "Y"
  },
  {
    "Molecule": "COc1ccc(/C(=C\\c2cc(OC)c(OC)c(OC)c2)C(=O)N2CCNCC2)cc1",
    "Group": "N"
  },
  {
    "Molecule": "CCCCCC(C)c1ccc(O)c(C)c1 (stereo not given)",
    "Group": "N"
  },
  {
    "Molecule": "CCc1nnc(CNc2ccc(Cl)cc2)o1",
    "Group": "N"
  },
  {
    "Molecule": "NC[C@@H]1CCN(c2cc3c(cc2F)c(=O)n(N)c(=O)n3Cc2ccc(-c3ccccc3)cc2)C1",
    "Group": "N"
  },
  {
    "Molecule": "Clc1ccc2c(c1)N(c1ncnc3ccc(-c4cnc5[nH]ccc5c4)cc13)CC2",
    "Group": "Y"
  },
  {
    "Molecule": "CC(=O)N1CC(=O)NC1=S",
    "Group": "N"
  }
]
